Hey, just so you know, these numbers are from ChEMBL document CHEMBL1201862.

Tested on: Malme-3M
EXPERIMENT SUMMARY: NCI tumour cell line growth inhibition, 48 h
Calls of active or inactive are those of the source. Rule as the data show it: active = GI50 up to about 1.1 µM and inactive = higher.
Reported values of GI50 for individual entries

| COMPOUND | GI50 |
| --- | --- |
| O=C(O)c1ccccc1CN1CCCC(C(=O)O)C1 (configuration not stated) | > 100 µM (inactive) |

stdin: Entry CC(N)Cc1cccc(C(F)(F)F)c1 (configuration not stated) : reported GI50 = ?
stdout: > 100 µM (inactive)

stdin: Entry `Nc1ccc(Cc2c(N)[nH]c(=O)[nH]c2=O)cc1` : reported GI50 = ?
stdout: > 100 µM (inactive)

stdin: Entry `O=C(O)CCc1c2ccc(=O)c(O)c-2oc2c(O)c(O)ccc12` : reported GI50 = ?
stdout: 26.4 µM (inactive)
